# tested on: CDK4-NanoLuc fusion with CCND1 in 293T or 293 cells (Homo sapiens)
# Construct: host or cells: 293T (ATCC CRL-3216) or 293 (ATCC CRL-1573)
# Sequence (P11802 whole entry, the tested form may be a part): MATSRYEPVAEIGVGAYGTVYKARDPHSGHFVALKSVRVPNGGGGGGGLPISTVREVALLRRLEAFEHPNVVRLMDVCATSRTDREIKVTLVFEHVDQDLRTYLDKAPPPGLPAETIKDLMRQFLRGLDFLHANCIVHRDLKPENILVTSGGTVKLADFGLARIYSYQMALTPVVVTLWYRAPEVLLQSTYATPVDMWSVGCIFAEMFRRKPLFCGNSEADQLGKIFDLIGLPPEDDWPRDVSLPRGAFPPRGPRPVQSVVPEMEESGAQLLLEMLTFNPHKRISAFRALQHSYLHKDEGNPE
# Sequence (P24385 whole entry partner, the tested form may be a part): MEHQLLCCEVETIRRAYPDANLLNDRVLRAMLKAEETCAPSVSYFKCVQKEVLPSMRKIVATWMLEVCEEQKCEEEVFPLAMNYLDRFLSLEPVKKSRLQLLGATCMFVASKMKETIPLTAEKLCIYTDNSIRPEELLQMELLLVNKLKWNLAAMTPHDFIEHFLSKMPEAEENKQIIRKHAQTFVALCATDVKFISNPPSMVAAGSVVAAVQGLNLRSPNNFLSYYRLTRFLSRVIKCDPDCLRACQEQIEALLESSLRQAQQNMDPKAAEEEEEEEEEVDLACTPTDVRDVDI
# assay text: NanoBRET Target Engagement (TE) Intracellular Kinase Assay, CDK4/CCND1
# Format: cell-based
# details: NanoBRET TE intracellular kinase assay, 2-hour incubation, read-out: NanoBRET-CDK4/D1 IC50
In this section we review reported pIC50 values for a set of compounds.
pIC50 (log units): -log10 of the concentration in mol/L.

>  <compound>
COc1cc(O)c(C=O)c(OCC(=O)Nc2cc([C@H]3CC[C@@H](OC(=O)N(C)CCC#N)C3)[nH]n2)c1

>  <tested on>
CDK4-NanoLuc fusion with CCND1 in 293T or 293 cells (Homo sapiens)

>  <readout name>
pIC50

>  <assay value>
5.20

$$$$
>  <compound>
COc1cc(O)c(C=O)c(OCC(=O)Nc2cc([C@H]3CC[C@@H](OC(=O)NC4(C)CC4(F)F)C3)[nH]n2)c1 (single isomer, unassigned) [Compound 281]

>  <tested on>
CDK4-NanoLuc fusion with CCND1 in 293T or 293 cells (Homo sapiens)

>  <readout name>
pIC50

>  <assay value>
5.92

$$$$

[in] Entry under review: COc1cc(O)c(C=O)c(OCC(=O)Nc2cc([C@H]3CC[C@@H](OC(=O)N4C5CCCC4C5)C3)[nH]n2)c1 . Reported pIC50?
[out] 5.84

[in] Entry under review: O=Cc1c(O)cccc1OCC(=O)Nc1cc([C@H]2CC[C@@H](OC(=O)N3C4COCC3C4)C2)[nH]n1 . Reported pIC50?
[out] 5.13

[in] Entry under review: COc1cc(O)c(C=O)c(CCC(=O)Nc2cc([C@H]3CC[C@@H](OC(=O)NC(C)C)C3)[nH]n2)c1 [Compound 22, 2,2,2-trifluoroacetate] . Reported pIC50?
[out] 5.43

[in] Entry under review: COc1cc(O)c(C=O)c(OCC(=O)Nc2cc([C@H]3CC[C@@H](OC(=O)N[C@H]4C[C@H]4F)C3)[nH]n2)c1 . Reported pIC50?
[out] 5.53

[in] Entry under review: CC(C)NC(=O)O[C@@H]1CC[C@H](c2cc(NC(=O)C3CCN(c4cccc(O)c4C=O)CC3)n[nH]2)C1 . Reported pIC50?
[out] 5.42

[in] Entry under review: C[C@H]1CCCN1C(=O)O[C@@H]1CC[C@H](c2cc(NC(=O)COc3cccc(O)c3C=O)n[nH]2)C1 . Reported pIC50?
[out] 5.54

[in] Entry under review: COc1cc(O)c(C=O)c(OCC(=O)Nc2cc([C@H]3CC[C@@H](OC(=O)N[C@H](C)CC(F)F)C3)[nH]n2)c1 . Reported pIC50?
[out] 5.10
